target: Delta-type opioid receptor (Homo sapiens, UniProt P41143); assay: Displacement of [3H]NTI from monocloned delta opioid receptor expressed in CHO cells
Sequence (P41143 whole entry): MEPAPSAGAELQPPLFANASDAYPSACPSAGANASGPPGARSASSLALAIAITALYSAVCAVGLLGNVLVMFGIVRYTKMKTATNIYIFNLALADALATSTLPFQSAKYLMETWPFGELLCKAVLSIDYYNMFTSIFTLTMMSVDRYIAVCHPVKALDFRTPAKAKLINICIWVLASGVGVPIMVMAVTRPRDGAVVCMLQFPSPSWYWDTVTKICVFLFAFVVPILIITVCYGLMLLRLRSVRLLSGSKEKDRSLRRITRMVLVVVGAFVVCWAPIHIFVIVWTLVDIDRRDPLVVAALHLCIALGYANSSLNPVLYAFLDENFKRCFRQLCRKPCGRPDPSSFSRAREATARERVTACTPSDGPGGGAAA
Item-by-item account of pKi
On this scale, pKi is minus log10 of a concentration expressed in M (mol/L).

Smiles text	pKi
O=C(N[C@@H]1CC[C@@]2(O)[C@H]3Cc4ccc(O)c5c4[C@@]2(CCN3CC2CC2)[C@H]1O5)c1ccccn1	6.67
O=C(N[C@@H]1CC[C@@]2(O)[C@H]3Cc4ccc(O)c5c4[C@@]2(CCN3CC2CC2)[C@H]1O5)c1cnc2ccccc2c1	7.94
O=C(N[C@H]1CC[C@@]2(O)[C@H]3Cc4ccc(O)c5c4[C@@]2(CCN3CC2CC2)[C@H]1O5)c1ccc2ccccc2c1	6.29

Query string: Fill in the blank: the reported pKi of O=C(N[C@H]1CC[C@@]2(O)[C@H]3Cc4ccc(O)c5c4[C@@]2(CCN3CC2CC2)[C@H]1O5)c1cc2ccccc2cn1 is ____.
Result string: 6.88

Query string: Fill in the blank: the reported pKi of O=C(N[C@@H]1CC[C@@]2(O)[C@H]3Cc4ccc(O)c5c4[C@@]2(CCN3CC2CC2)[C@H]1O5)c1cccnc1 is ____.
Result string: 6.72
